Where these numbers come from: the supplement of paper PMC7877785

- test: self-splicing fitness, log relative to wild type (ln ratio); higher = more splicing; Tetrahymena group I intron in knt gene, E. coli kanamycin selection, DiMSum; sequences stand for … in CUCUCU…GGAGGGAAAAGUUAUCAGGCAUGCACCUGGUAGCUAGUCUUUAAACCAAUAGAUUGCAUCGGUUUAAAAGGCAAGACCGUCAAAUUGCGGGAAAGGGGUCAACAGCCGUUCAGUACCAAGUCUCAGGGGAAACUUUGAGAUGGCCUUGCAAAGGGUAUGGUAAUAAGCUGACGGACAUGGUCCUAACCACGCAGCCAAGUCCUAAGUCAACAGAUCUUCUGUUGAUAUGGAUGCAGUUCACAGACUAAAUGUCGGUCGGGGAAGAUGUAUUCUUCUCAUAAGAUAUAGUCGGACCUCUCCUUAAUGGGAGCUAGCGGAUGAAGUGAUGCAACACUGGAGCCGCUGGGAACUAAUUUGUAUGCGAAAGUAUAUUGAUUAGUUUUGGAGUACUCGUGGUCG;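 also: selection with 25 µg/mL kanamycin versus none on LB agar overnight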
- assay setup: 30 °C
Answer not satisfied if self-splicing fitness (ln) is under -3, and satisfied if it is -3 or more.

Examples from the recorded data:
In [3]: df
Out[3]:
        record_sequence  label_class
0  AAGUAGCAAUAUUACGCGGG    satisfied
1  ACAAAGCAAUAUUACGACGC    satisfied
2  UCGCAGCAAUAUUACGGAUG    satisfied
3  CCCGAGCAAUAUUACGGCGA    satisfied

Could you verify whether the entry GCGUAGCAAUAUUACGGGUU shows self-splicing fitness (ln) of no less than -3?
satisfied

Could you tell me if the measured self-splicing fitness (ln) of CUCUAGCAAUAUUACGGCAU reaches -3 or more?
not satisfied

Check the entry CCUGAGCAAUAUUACGAUUG : does self-splicing fitness (ln) equal or exceed -3?
satisfied
